Numbers sourced from patent US12144869B2.

system: ROR1 negative MCF7 cells; assay: In vitro cell killing of ROR1 ADCs on MCF7; type: cell-based; details: Table 13; ROR1 negative MCF7, 120 hours
MEASUREMENT_NAME: MCF-7 Span (%)
Give just the number in %; leave the unit off.

*Q* Return value of MCF-7 Span for input CC[C@@]1(O)C(=O)OCc2c1cc1n(c2=O)Cc2c-1nc1cc(F)c(C)c3c1c2[C@@H](NC(=O)CN)CC3 , no commentary.
*A* 73

*Q* Return value of MCF-7 Span for input CC[C@@]1(O)C(=O)OCc2c1cc1n(c2=O)Cc2c-1nc1cc(F)c(C)c3c1c2[C@@H](NC(=O)CO)CC3 , no commentary.
*A* 63

*Q* Return value of MCF-7 Span for input COc1cccc2c1C(=O)c1c(O)c3c(c(O)c1C2=O)C[C@@](O)(C(=O)NCCN)C[C@@H]3O[C@H]1C[C@H]2[C@H](O[C@@H]3[C@@H](OC)OCCN32)[C@H](C)O1 , no commentary.
*A* 85

*Q* Return value of MCF-7 Span for input CC[C@@]1(O)C(=O)OCc2c1cc1n(c2=O)Cc2c-1nc1cc(F)c(C)c3c1c2[C@@H](N)CC3 , no commentary.
*A* 91
